Molecular target: VLA4 (Homo sapiens, UniProt P05556+P13612)
Construct: endogenous in cells; host or cells: Ramos cells
Sequence (P13612 34-1032): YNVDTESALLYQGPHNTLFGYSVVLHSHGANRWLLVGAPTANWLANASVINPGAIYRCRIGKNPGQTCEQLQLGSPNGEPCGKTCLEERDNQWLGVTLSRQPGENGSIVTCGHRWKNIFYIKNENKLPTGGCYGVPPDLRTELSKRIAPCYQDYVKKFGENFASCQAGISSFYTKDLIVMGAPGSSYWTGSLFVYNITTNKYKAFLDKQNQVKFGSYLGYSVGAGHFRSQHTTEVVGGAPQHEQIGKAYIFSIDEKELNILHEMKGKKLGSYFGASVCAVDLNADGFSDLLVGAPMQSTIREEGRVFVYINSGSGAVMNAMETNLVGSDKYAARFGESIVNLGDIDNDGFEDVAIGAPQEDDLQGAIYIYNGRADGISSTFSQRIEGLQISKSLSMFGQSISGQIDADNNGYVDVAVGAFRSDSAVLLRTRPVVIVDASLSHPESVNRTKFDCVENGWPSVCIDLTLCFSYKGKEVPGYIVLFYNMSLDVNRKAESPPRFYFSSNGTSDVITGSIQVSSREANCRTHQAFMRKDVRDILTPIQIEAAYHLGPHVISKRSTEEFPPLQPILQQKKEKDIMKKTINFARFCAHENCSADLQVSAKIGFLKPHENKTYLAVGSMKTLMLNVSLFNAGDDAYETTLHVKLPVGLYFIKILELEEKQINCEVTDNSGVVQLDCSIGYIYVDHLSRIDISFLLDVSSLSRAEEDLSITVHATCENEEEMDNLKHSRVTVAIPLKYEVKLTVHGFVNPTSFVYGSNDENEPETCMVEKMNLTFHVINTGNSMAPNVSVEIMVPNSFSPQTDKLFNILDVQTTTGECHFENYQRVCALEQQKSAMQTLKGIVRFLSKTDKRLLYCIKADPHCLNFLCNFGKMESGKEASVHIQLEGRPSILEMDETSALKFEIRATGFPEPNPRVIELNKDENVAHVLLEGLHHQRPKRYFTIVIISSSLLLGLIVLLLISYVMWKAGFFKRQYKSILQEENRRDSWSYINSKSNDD
Sequence (P05556 21-798): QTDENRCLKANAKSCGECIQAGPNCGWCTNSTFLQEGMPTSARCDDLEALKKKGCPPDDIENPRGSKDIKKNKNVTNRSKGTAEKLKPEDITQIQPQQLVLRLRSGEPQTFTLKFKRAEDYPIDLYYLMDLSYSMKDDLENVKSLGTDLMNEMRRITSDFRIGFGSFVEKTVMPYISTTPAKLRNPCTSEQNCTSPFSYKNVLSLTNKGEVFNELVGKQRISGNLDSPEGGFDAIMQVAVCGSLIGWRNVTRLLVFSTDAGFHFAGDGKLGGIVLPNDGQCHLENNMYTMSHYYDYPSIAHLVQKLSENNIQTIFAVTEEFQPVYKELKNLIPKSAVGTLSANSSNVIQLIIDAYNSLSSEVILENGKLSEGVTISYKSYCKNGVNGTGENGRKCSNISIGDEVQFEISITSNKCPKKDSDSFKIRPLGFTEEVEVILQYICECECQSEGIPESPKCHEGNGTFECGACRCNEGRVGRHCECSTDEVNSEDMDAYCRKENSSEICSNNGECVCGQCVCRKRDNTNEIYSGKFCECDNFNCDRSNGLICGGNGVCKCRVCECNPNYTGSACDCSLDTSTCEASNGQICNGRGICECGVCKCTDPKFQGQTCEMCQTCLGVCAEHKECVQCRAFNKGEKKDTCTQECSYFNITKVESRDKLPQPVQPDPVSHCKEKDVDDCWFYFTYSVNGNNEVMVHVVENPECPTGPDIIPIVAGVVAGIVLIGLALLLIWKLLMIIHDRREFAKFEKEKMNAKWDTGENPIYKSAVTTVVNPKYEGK
Assay: Inhibition of VLA4-dependent adhesion to BSA-CS1
Format: cell-based
Settings: binding of BCECF-labelled Ramos cells to BSA-CS1 coated wells, 2 mM MnCl2; read-out: IC50
Experimental: For example, the cell adhesion inhibitory activity of these compounds may be measured by determining the concentration of inhibitor required to block the binding of VLA-4-expressing cells to fibronectin- or CS1-coated plates. […] Inhibition of binding is measured by quantitating the fluorescence or radioactivity bound to the plate for each of the various concentrations of test compound, as well as for controls containing no test compound. […]
Numbered stars: 1 amine (or outer) side, 2 acyl side, 3 side chain; on linkers, the order of the positions; unused ones are H or OH. Square brackets hold non-standard residues; d marks the D form. Peptide text beside a SMILES is read from it. * marks the point of attachment. X1 = O=C(Cc1ccc(N[*:1])cc1)[*:2]; NH(2-Me-phenyl) = Cc1ccccc1N*; CO = O=C([*:1])[*:2]
Endpoint: IC50

### Prompt Entry CNC(=O)[C@@H](NC(=O)[C@H](CC(=O)O)NC(=O)[C@H](CC(C)C)NC(=O)Cc1ccc(NC(=O)Nc2ccccc2)cc1)C(C)C [Compound 204] : reported IC50 = ?
### Response 0.05 to 10 µM

### Prompt Do the same for Cc1ccccc1NC(=O)Nc1ccc(CC(=O)N[C@@H](CCC(N)=O)C(=O)N[C@@H](CC(=O)O)C(=O)N[C@H](CCC(=O)O)C(N)=O)cc1 [Compound 305] please
### Response < 0.05 µM

### Prompt Do the same for Cc1ccccc1NC(=O)Nc1ccc(CC(=O)N[C@@H](CCC(N)=O)C(=O)N[C@@H](CC(=O)O)C(=O)N[C@@H](Cc2c[nH]c3ccccc23)C(N)=O)cc1 [Compound 306] please
### Response < 0.05 µM

### Prompt Do the same for Cc1ccccc1NC(=O)Nc1ccc(CC(=O)N[C@H](C(=O)N[C@@H](CC(C)C)C(=O)N2CCC[C@H]2C(=O)N[C@@H](CC(=O)O)C(=O)O)C(C)C)cc1 [Compound 339] ({NH(2-Me-phenyl)-CO}-[X1]VLPD-OH) please
### Response > 10 µM

### Prompt Do the same for CC[C@H](C)[C@H](NC(=O)CCc1ccc(O)cc1)C(=O)N[C@H](CC(=O)O)C(=O)NCC(C)C [Compound 16] please
### Response > 10 µM

====

Provide the reported IC50 of each item.
biological target: VLA4 (Homo sapiens, UniProt P05556+P13612); construct: endogenous in cells; host or cells: Ramos cells; assay: Inhibition of VLA4-dependent adhesion to BSA-CS1; assay type: cell-based; details: binding of BCECF-labelled Ramos cells to BSA-CS1 coated wells, 2 mM MnCl2; read-out: IC50

### Prompt Entry CSCC[C@H](NC(=O)[C@H](CC(=O)O)NC(=O)[C@@H](NC(=O)Cc1ccc(NC(=O)Nc2ccccc2C)cc1)[C@@H](C)O)C(N)=O : reported IC50 = ?
### Response < 50 nM

### Prompt Do the same for CC(C)CC(NC(=O)CCCCc1ccccc1)C(=O)NC(CC(=O)O)C(=O)NCC1CCCCC1 (stereo not shown) please
### Response > 10000 nM

### Prompt Do the same for Cc1ccccc1NC(=O)Nc1ccc(CC(=O)N2CCCC2C(=O)NC(CC(=O)O)C(=O)NC(CO)C(N)=O)cc1 (stereo not shown) please
### Response < 50 nM

### Prompt Do the same for CC(C)C[C@H](NC(=O)Cc1ccc(NC(=O)Nc2ccccc2)cc1)C(=O)N[C@@H](CC(=O)O)C(=O)N[C@H](C(=O)O)C(C)C please
### Response < 50 nM

====

target: VLA4 (Homo sapiens, UniProt P05556+P13612); construct: endogenous in cells; host or cells: Ramos cells; assay: Inhibition of VLA4-dependent adhesion to BSA-CS1; format: cell-based; conditions: binding of BCECF-labelled Ramos cells to BSA-CS1 coated wells, 2 mM MnCl2; read-out: IC50
pIC50: −log10 of the molar value. Numbered stars: 1 amine (or outer) side, 2 acyl side, 3 side chain; on linkers, the order of the positions; unused ones are H or OH. Square brackets hold non-standard residues; d marks the D form. Peptide text beside a SMILES is read from it. * marks the point of attachment. X2 = Cc1ccccc1NC(=O)Nc1ccc(CN*)cc1; X1 = O=C(Cc1ccc(N[*:1])cc1)[*:2]; Tic = O=C(O)[CH]1Cc2ccccc2CN1; Chg = N[CH](C(=O)O)C1CCCCC1; CO = O=C([*:1])[*:2]; NHPh = c1ccc(N*)cc1
Provide the reported pIC50 of each item.

### Prompt Entry Cc1ccccc1NC(=O)Nc1ccc(CC(=O)N2CCC[C@H]2C(=O)N[C@@H](CC(=O)O)C(=O)N[C@H](C(N)=O)C(C)C)cc1 : reported pIC50 = ?
### Response > 7.30

### Prompt Do the same for CC(C)C[C@H](NC(=O)Cc1cccs1)C(=O)N[C@@H](CC(=O)O)C(=O)N[C@H](C(=O)O)C(C)C please
### Response < 5.00

### Prompt Do the same for Cc1ccccc1NC(=O)Nc1ccc(CC(=O)N[C@H](C(=O)N[C@@H](CC(=O)O)C(=O)N[C@H](CCC(=O)O)C(N)=O)[C@@H](C)O)cc1 please
### Response > 7.30

### Prompt Do the same for Cc1ccccc1NC(=O)Nc1ccc(CC(=O)N[C@@H](CCC(N)=O)C(=O)N[C@@H](CC(=O)O)C(=O)N[C@H](CC(C)C)C(N)=O)cc1 please
### Response > 7.30

### Prompt Do the same for CCC(C)C(NC(=O)C(CC(=O)O)NC(=O)C(NC(=O)C1CCCN1)C(C)C)C(=O)NCc1ccc(NC(=O)Nc2ccccc2C)cc1 (stereo not drawn) [Compound 343] (H-PVDI-X2; configuration not given here) please
### Response < 5.00

### Prompt Do the same for Cc1ccccc1NC(=O)Nc1ccc(CC(=O)N2CCC[C@H]2C(=O)N[C@@H](CC(=O)O)C(=O)N[C@@H](Cc2c[nH]c3ccccc23)C(N)=O)cc1 please
### Response > 7.30

### Prompt Do the same for Cc1ccccc1NC(=O)Nc1ccc(CC(=O)N2CCC[C@H]2C(=O)N[C@@H](CC(=O)O)C(=O)N[C@@H](CCC(=O)O)C(N)=O)cc1 please
### Response > 7.30

### Prompt Do the same for CCCc1ccc(C(=O)N[C@@H](CC(C)C)C(=O)N[C@@H](CC(=O)O)C(=O)N[C@H](C(=O)O)C(C)C)cc1 please
### Response < 5.00

### Prompt Do the same for Cc1ccccc1NC(=O)Nc1ccc(CC(=O)NC(CC(C)C)C(=O)NC(CC(=O)O)C(=O)NC(CO)C(N)=O)cc1 (stereo not drawn) please
### Response > 7.30

### Prompt Do the same for CC(C)C(NC(=O)C(CC(=O)O)NC(=O)C(NC(=O)C1Cc2ccccc2CN1)C1CCCCC1)C(=O)O (stereo not drawn) [Compound 84] (H-[Tic][Chg]DV-OH; configuration not given here) please
### Response < 5.00

### Prompt Do the same for Cc1ccccc1NC(=O)Nc1ccc(CC(=O)N[C@@H](CCC(=O)O)C(=O)N[C@@H](CC(=O)O)C(=O)N[C@@H](CC(=O)O)C(N)=O)cc1 please
### Response > 7.30

### Prompt Do the same for CC(C)C[C@@H](NC(=O)Cc1ccc(NC(=O)Nc2ccccc2)cc1)C(=O)N[C@@H](CC(=O)O)C(=O)N[C@H](C(=O)N1CCC[C@H]1C(N)=O)C(C)C [Compound 209] ({NHPh-CO}-[X1][dL]DVP-NH2) please
### Response 5.00 to 7.30

### Prompt Do the same for CSCC[C@H](NC(=O)Cc1ccc(NC(=O)Nc2ccccc2C)cc1)C(=O)N[C@@H](CC(=O)O)C(=O)N[C@H](CC(C)C)C(N)=O please
### Response > 7.30

### Prompt Do the same for Cc1ccccc1NC(=O)Nc1ccc(CC(=O)N[C@@H](CC(C)C)C(=O)N[C@@H](CC(=O)O)C(=O)N[C@H](CC(N)=O)C(N)=O)cc1 please
### Response > 7.30

### Prompt Do the same for COC(=O)[C@@H](NC(=O)[C@H](CC(=O)O)N1CCC(NC(=O)OCc2ccccc2)C1=O)C(C)C (stereo partly drawn) please
### Response < 5.00

### Prompt Do the same for CCC(C)C(NC(=O)CCc1ccc(O)cc1)C(=O)NC(CC(=O)O)C(=O)NCC(C)C (stereo not drawn) please
### Response < 5.00

### Prompt Do the same for COc1cccc(CC(=O)N[C@@H](CC(C)C)C(=O)N[C@@H](CC(=O)O)C(=O)N[C@H](C(=O)O)C(C)C)c1 please
### Response < 5.00

### Prompt Do the same for CC(C)[C@H](NC(=O)[C@H](CC(=O)O)NC(=O)C(C)(C)NC(=O)c1cc2ccccc2cn1)C(=O)O please
### Response < 5.00

### Prompt Do the same for CNC(=O)[C@H](CCC(=O)O)NC(=O)[C@@H]1CCCN1C(=O)Cc1ccc(NC(=O)Nc2ccccc2C)cc1 please
### Response 5.00 to 7.30

### Prompt Do the same for Cc1ccccc1NC(=O)Nc1ccc(CC(=O)N2CCC[C@H]2C(=O)N[C@@H](CC(=O)O)C(=O)N[C@H](CC(C)C)C(=O)O)cc1 please
### Response > 7.30

### Prompt Do the same for Cc1ccccc1NC(=O)Nc1ccc(CC(=O)N[C@@H](CCC(=O)O)C(=O)N[C@@H](CC(=O)O)C(=O)N[C@H](C(N)=O)C(C)C)cc1 please
### Response > 7.30
